Test: chemical genetic growth profiling, strain panel (AID 1159580);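 note: tested at 20 µM; growth read once vehicle control cultures reached saturation at 30 °C; 1 = growth at the plate median or of vehicle wells; lower values mean less growth of the strain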
Conditions: S. cerevisiae deletion strains, growth OD, locus YPL256C, strain CLN2, active compounds read low
Screen size: about 5,500 compounds; about 2,000 (36%) were called active. About 18% were inconclusive and are not listed. The list shows a part of the results.
Measured normalized growth values are reported for all entries that follow.
reported_property: normalized growth

compound	reported_property	reported_result
CC(=O)N[C@@H](CC(C)C)C(=O)O	normalized growth	1.04 (inactive)
Cc1ccc(/C=C2\CSc3ccc(F)cc3C2=O)cc1	normalized growth	0.831 (active)
COP(=O)(OC)OC=C(Cl)Cl	normalized growth	1.05 (inactive)
COc1cc2c(cc1OC)C(=O)OC2	normalized growth	1 (inactive)
O=C(N/C=C/c1ccsc1)Nc1cc(C(F)(F)F)cc(C(F)(F)F)c1	normalized growth	0.444 (active)
OCCN1C[C@@H](O)[C@@H](O)C(O)C1CO (stereo partly specified)	normalized growth	1.02 (inactive)
COc1ccc(OC)c(C(O)C(C)N)c1 (stereo unspecified)	normalized growth	1.06 (inactive)
CC(C[N+](C)(C)C)OC(N)=O (stereo unspecified)	normalized growth	0.976 (inactive)
CC(=O)OCC[N+](C)(C)C	normalized growth	1.24 [resistant] (active)
CS(=NC(=O)c1cccc(Cl)c1)c1ccc(OC(=O)c2ccc(Cl)cc2)cc1 (stereo unspecified)	normalized growth	1.06 (inactive)
CN(C)C(=S)SSC(=S)N(C)C	normalized growth	0.125 (active)
COc1cc(NC(=S)NC(=O)c2ccccc2)c(OC)cc1Cl	normalized growth	0.959 (inactive)
O=S(=O)(Nc1cccc(CCc2ccccn2)c1)c1cc(Cl)c(Cl)cc1Cl	normalized growth	0.945 (inactive)
COC(=O)C(OC(C)=O)[C@H]1C(C)(C)C(OC(C)=O)[C@@H]2CC3=C4CC(=O)O[C@@H](c5ccoc5)[C@]4(C)CCC3[C@@]1(C)C2=O (stereo partly specified)	normalized growth	0.951 (inactive)
Cc1cc(Cl)ccc1NNC(=O)c1snnc1C	normalized growth	0.881 (inactive)
S=c1nc[nH]c2nc[nH]c12	normalized growth	1.04 (inactive)
Cc1cc(O)c(C=O)c(O)c1C(=O)O	normalized growth	1.03 (inactive)
NC(=O)c1ccc[n+]([C@@H]2O[C@H](COP(=O)([O-])OP(=O)(O)OC[C@H]3O[C@@H](n4cnc5c(N)ncnc54)[C@H](O)[C@@H]3O)[C@@H](O)[C@H]2O)c1	normalized growth	0.961 (inactive)
Cc1cc(Cl)ccc1NNC(=O)c1ccno1	normalized growth	0.958 (inactive)
Cc1cccc(C)c1OCC(C)N (stereo unspecified)	normalized growth	0.998 (inactive)
CCC(=O)O[C@H]1[C@H](O[C@@H]2[C@@H](C)[C@H](O[C@H]3C[C@@](C)(OC)[C@@H](O)[C@H](C)O3)[C@@H](C)C(=O)O[C@H](CC)[C@@](C)(O)[C@H](O)[C@@H](C)C(=O)[C@H](C)C[C@@]2(C)O)O[C@H](C)C[C@@H]1N(C)C	normalized growth	0.953 (inactive)
Cc1nnsc1C(=O)NNc1ccc(F)cc1F	normalized growth	0.602 (active)
C=C(C)C1CNC(C(=O)O)C1CC(=O)O (stereo unspecified)	normalized growth	0.977 (inactive)
COc1cc(/C=C/C(=O)/C=C(O)/C=C/c2ccc(O)c(OC)c2)ccc1O	normalized growth	0.494 (active)
CC1=C(CC(=O)O)c2cc(F)ccc2/C1=C\c1ccc(S(C)=O)cc1 (stereo unspecified)	normalized growth	0.994 (inactive)
CC1/C(=N\O)C[C@@H]2C[C@H]1C2(C)C (stereo partly specified)	normalized growth	1.05 (inactive)
CCCCCCCCCCCCCCCC(=O)OC/C=C(C)/C=C/C=C(C)/C=C/C1=C(C)CCCC1(C)C	normalized growth	0.916 (inactive)
CN1CCC(=C2c3ccccc3CC(=O)c3sccc32)CC1	normalized growth	1.04 (inactive)
O=C(O)C1(O)C[C@@H](O)C(O)[C@H](O)C1 (stereo partly specified)	normalized growth	0.992 (inactive)
CNCCc1ccccn1	normalized growth	1.04 (inactive)
N#CC(C#N)=C(SCc1c(Cl)cccc1Cl)SCc1c(Cl)cccc1Cl	normalized growth	0.946 (inactive)
Cc1nnsc1C(=O)NNc1c(Cl)cccc1Cl	normalized growth	0.921 (inactive)
Cc1cc(O)c(C)c(O)c1C(=O)O	normalized growth	1.03 (inactive)
CN1CCC(=C2c3ccccc3CCc3sccc32)CC1	normalized growth	0.963 (inactive)
CCN(CC)CCNC(=O)c1cc(Br)c(N)cc1OC	normalized growth	0.963 (inactive)
c1cncc(C2CCCCN2)c1 (stereo unspecified)	normalized growth	0.997 (inactive)
Cc1ccc(-c2csc(-c3cccnc3)n2)c(C)c1	normalized growth	0.849 (active)
C[N+](C)(C)CCOC(N)=O	normalized growth	0.993 (inactive)
NCC1CCC(C(=O)O)CC1 (stereo unspecified)	normalized growth	1.02 (inactive)
O=S(=O)(Nc1cccc2nsnc12)c1cc(Cl)sc1Cl	normalized growth	0.884 (inactive)
CC(C(=O)O)c1cccc(C(=O)c2ccccc2)c1 (stereo unspecified)	normalized growth	1.02 (inactive)
